- target system: HER2 YVMA (Homo sapiens, UniProt P04626, INS775YVMA)
- Sequence (P04626 with tags, fused parts or gaps INS775YVMA): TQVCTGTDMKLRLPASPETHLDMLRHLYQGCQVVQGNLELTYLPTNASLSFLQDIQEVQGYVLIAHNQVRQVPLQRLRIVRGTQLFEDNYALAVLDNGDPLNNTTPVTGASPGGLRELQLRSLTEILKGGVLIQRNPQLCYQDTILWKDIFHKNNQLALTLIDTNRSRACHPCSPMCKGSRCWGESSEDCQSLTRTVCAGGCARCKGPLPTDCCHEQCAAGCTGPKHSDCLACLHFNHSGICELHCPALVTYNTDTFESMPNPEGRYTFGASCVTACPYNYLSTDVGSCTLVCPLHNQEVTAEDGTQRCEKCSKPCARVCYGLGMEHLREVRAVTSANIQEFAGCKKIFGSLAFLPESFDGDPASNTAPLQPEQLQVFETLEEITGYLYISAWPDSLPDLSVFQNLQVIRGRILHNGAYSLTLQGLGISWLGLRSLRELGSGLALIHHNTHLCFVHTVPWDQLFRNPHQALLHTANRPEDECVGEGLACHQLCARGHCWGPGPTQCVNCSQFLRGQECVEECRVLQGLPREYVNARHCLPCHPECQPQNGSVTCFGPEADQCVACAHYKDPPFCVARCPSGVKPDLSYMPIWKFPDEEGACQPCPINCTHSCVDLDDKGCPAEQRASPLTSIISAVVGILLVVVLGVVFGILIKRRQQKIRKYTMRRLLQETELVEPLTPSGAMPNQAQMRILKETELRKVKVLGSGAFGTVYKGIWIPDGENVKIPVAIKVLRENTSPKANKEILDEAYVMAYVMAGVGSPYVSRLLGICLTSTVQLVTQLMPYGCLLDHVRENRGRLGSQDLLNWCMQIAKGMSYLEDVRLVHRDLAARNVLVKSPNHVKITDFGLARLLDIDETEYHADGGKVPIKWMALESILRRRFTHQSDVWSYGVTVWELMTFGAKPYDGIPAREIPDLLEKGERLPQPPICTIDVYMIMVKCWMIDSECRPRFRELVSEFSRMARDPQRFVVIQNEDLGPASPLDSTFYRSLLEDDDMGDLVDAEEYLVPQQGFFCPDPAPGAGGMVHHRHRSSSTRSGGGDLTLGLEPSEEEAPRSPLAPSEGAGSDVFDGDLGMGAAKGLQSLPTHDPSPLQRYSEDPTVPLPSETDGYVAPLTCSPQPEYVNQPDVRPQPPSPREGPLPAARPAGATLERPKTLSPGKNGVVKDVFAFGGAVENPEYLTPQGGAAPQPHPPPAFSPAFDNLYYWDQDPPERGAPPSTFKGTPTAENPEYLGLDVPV
- method description: BaF3 cell proliferation assay (CellTiterGlo), HER2 YVMA
- particulars: Table A; BaF3 cells, 3 days
pIC50: −log10 of the molar value.
measured metric: pIC50

INSERT INTO results (compound, result) VALUES
  ('C=CC(=O)Nc1cc2c(Nc3cccc(Cl)c3F)ncnc2cc1C#CC1(C)CN(C)CCO1 (stereo not shown)', '< 6.30'),
  ('C=CC(=O)Nc1cc2c(Nc3ccc(OCc4ccccn4)c(Cl)c3)ncnc2cc1C#CC1(C)CCN(C)C1 (stereo not shown)', '≥ 7.30'),
  ('C=CC(=O)Nc1cc2c(Nc3ccc(OCc4cccc(F)c4)c(Cl)c3)ncnc2cc1C#C[C@@H]1[C@H]2CN(C)C[C@@H]12', '6.30 to 7.00'),
  ('C=CC(=O)Nc1cc2c(Nc3ccc(OCc4ccccn4)c(Cl)c3)ncnc2cc1C#C[C@]1(C)CCN(C)C1', '≥ 7.30');

====

- target system: EGFR V3 (Homo sapiens, UniProt P00533, DELINS30-297G)
- Construct: expressed in transfected cells; host or cells: BaF3 (murine pro-B) cells, retroviral transduction with pMXs-IRES-Blasticidin
- Sequence (P00533 with tags, fused parts or gaps DELINS30-297G): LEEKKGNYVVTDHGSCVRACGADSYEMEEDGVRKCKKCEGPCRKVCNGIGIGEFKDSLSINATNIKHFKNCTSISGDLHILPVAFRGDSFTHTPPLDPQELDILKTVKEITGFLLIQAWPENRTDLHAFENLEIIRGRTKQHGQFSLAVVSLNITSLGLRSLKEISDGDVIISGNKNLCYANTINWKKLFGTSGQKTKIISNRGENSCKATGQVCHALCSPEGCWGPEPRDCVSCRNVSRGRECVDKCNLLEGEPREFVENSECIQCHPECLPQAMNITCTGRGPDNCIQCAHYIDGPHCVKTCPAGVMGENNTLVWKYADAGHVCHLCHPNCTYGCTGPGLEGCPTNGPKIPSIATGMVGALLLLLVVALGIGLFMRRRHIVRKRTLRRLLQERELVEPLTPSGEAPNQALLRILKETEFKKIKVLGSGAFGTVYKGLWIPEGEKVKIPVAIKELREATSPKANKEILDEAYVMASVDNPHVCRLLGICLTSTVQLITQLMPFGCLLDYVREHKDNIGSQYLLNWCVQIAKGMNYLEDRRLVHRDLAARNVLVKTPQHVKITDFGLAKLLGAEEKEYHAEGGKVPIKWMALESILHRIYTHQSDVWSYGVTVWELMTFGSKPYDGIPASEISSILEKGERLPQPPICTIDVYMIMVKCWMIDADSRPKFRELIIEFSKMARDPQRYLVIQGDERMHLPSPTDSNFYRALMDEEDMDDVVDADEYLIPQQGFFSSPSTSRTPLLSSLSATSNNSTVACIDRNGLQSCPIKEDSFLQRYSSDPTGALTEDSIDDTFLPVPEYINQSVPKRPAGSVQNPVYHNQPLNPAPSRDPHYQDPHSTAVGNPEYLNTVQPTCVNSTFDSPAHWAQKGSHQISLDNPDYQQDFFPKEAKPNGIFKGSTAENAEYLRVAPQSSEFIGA
- method description: BaF3 cell proliferation assay (CellTiterGlo), EGFR V3
- Assay type: cell-based
- particulars: Table A; BaF3 cells, 3 days
pIC50: −log10 of the molar value.
measured metric: pIC50

INSERT INTO measurements (compound, measured_metric, result) VALUES
  ('C=C(F)C(=O)Nc1cc2c(Nc3cccc(Cl)c3F)ncnc2cc1C#CC1(C)CCN(C)C1 (stereo not shown)', 'pIC50', '≥ 7.30'),
  ('CN1C[C@H]2C[C@@]2(C#Cc2cc3ncnc(Nc4cccc(Cl)c4F)c3cc2NC(=O)/C=C/CN2CCCC(C(=O)O)C2)C1 (stereo partly shown)', 'pIC50', '< 6.30'),
  ('C=CC(=O)Nc1cc2c(Nc3ccc(OCc4ccccn4)c(Cl)c3)ncnc2cc1C#C[C@]1(C)CCN(C)C1', 'pIC50', '≥ 7.30'),
  ('C=CC(=O)Nc1cc2c(Nc3cccc(Cl)c3F)ncnc2cc1C#CC1(C)CCCN(C)C1 (stereo not shown)', 'pIC50', '≥ 7.30');

====

- target system: HER2 S310F (Homo sapiens, UniProt P04626, S310F)
- Sequence (P04626 23-1255 S310F): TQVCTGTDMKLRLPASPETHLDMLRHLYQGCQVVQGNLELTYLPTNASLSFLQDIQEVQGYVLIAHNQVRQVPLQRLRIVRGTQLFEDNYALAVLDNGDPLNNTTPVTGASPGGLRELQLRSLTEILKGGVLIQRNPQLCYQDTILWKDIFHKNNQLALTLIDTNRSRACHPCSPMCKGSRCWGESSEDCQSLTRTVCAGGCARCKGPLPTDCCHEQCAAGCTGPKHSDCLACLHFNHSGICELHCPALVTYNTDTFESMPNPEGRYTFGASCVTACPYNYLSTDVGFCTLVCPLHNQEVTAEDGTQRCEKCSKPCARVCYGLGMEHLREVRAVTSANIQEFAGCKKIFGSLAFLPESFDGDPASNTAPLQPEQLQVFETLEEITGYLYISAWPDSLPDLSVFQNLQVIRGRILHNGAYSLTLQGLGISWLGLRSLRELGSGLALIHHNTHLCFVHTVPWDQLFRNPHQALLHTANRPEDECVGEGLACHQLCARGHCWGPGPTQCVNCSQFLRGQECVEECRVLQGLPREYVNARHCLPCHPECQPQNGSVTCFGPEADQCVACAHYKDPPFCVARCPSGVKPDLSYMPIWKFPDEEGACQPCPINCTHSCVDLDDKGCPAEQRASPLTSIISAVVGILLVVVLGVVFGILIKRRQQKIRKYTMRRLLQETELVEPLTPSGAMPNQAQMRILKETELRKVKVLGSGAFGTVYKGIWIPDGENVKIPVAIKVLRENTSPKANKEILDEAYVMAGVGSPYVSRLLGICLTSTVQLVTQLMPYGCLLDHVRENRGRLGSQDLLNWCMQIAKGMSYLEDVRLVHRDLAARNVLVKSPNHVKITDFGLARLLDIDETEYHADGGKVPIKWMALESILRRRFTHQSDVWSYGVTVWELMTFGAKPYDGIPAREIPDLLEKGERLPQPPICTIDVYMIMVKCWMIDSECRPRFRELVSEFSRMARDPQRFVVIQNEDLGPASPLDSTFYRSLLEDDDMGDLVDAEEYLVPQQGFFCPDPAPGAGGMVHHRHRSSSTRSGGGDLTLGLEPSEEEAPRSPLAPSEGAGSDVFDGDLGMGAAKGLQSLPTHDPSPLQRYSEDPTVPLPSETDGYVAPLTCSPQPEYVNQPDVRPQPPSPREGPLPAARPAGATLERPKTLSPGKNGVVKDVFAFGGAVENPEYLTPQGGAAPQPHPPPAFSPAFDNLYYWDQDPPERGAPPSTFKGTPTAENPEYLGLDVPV
- method description: BaF3 cell proliferation assay (CellTiterGlo), HER2 S310F
- particulars: Table A; BaF3 cells, 3 days
measured metric: IC50

INSERT INTO assay_data (molecule, result) VALUES
  ('C=CC(=O)Nc1cc2c(Nc3cccc(Cl)c3F)ncnc2cc1C#C[C@@]1(C)CCN(C2COC2)C1', '0.1 to 0.5 µM'),
  ('C=CC(=O)Nc1cc2c(Nc3cccc(Cl)c3F)ncnc2cc1C#CC12CC1CN(C1COC1)C2 (stereo not shown)', '0.1 to 0.5 µM'),
  ('C=CC(=O)Nc1cc2c(Nc3cccc(Cl)c3F)ncnc2cc1C#C[C@@]12C[C@@H]1CN(C1COC1)C2', '0.05 to 0.1 µM'),
  ('C=CC(=O)Nc1cc2c(Nc3ccc(OCc4ccccn4)c(Cl)c3)ncnc2cc1C#C[C@H]1[C@H]2CN(C)C[C@@H]12', '> 0.5 µM'),
  ('C=CC(=O)Nc1cc2c(Nc3cccc(Cl)c3F)ncnc2cc1C#C[C@]1(C)CCN(C)C1', '0.05 to 0.1 µM'),
  ('C=CC(=O)Nc1cc2c(Nc3cccc(Cl)c3F)ncnc2cc1C#C[C@@]1(C)CCCN(C)C1', '0.1 to 0.5 µM'),
  ('C=CC(=O)Nc1cc2c(Nc3cccc(Cl)c3F)ncnc2cc1C#CC1(C)CCN(CCF)C1 (stereo not shown)', '0.1 to 0.5 µM');

====

The molecules listed here are annotated with their IC50.
- target system: EGFR wt (Homo sapiens)
- Construct: expressed in transfected cells; host or cells: BaF3 (murine pro-B) cells, retroviral transduction with pMXs-IRES-Blasticidin
- Sequence (P00533 25-1210): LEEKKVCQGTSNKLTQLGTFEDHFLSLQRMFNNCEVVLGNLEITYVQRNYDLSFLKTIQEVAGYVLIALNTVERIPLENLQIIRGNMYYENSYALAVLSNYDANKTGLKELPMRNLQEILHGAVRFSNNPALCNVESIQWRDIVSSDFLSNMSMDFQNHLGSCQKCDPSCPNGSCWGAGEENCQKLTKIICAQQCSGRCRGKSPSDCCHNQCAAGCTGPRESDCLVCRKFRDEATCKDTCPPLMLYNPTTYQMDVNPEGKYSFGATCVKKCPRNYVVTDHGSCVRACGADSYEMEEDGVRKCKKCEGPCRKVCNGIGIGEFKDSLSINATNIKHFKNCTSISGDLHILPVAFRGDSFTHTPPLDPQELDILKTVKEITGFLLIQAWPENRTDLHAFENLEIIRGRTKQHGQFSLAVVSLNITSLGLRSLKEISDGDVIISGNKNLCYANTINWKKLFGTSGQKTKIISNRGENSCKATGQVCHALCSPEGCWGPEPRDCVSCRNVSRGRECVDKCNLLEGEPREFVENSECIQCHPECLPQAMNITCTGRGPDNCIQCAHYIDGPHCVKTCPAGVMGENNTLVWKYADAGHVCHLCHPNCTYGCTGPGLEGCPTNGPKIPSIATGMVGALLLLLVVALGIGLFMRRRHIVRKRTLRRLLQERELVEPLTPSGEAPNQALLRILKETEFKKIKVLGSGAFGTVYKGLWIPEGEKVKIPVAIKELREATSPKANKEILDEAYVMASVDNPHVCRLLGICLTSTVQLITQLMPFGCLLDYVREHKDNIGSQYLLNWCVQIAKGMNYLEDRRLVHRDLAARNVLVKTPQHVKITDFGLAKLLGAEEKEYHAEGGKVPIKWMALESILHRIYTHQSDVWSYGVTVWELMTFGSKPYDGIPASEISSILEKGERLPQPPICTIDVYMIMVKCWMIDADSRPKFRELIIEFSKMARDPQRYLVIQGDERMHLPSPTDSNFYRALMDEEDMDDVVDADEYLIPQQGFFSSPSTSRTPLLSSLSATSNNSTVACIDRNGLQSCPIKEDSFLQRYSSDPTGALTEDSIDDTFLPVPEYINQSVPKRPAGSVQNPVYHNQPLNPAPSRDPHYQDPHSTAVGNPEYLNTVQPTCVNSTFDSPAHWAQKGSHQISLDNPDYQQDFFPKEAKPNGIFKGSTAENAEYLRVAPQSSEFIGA
- method description: BaF3 cell proliferation assay (CellTiterGlo), EGFR wt
- Format: cell-based
- particulars: Table A; BaF3 cells, 3 days
- Experimental: Retroviral Production: EGFR mutants were subcloned into pMXs-IRES-Blasticidin (RTV-016, Cell Biolabs, San Diego, CA). […] Assay for cell proliferation: BaF3 cell lines were resuspended at 1.3E5 c/ml in RPMI containing 10% Heat Inactivated FBS, 2% L-glutamine and 1% Pen/Strep and dispensed in triplicate (17.5E4 c/well) into 96 well plates. […] The number of viable cells was determined and normalized to vehicle-treated controls. […] EC50 values were determined with the same application.
measured metric: IC50

INSERT INTO measurements (molecule, target_system, result) VALUES
  ('C=CC(=O)Nc1cc2c(Nc3cccc(Cl)c3F)ncnc2cc1C#C[C@]1(C)CCN(C)C1 [Compound 3]', 'EGFR wt (Homo sapiens)', '50 to 100 nM'),
  ('C=CC(=O)Nc1cc2c(Nc3cccc(Cl)c3F)ncnc2cc1C#CC1(OC)CCN(C)C1 (stereo not drawn) [Compound 52]', 'EGFR wt (Homo sapiens)', '100 to 500 nM'),
  ('CN1C[C@H]2C[C@@]2(C#Cc2cc3ncnc(Nc4cccc(Cl)c4F)c3cc2NC(=O)/C=C/CN2C3COCC2C3)C1 [Compound 20]', 'EGFR wt (Homo sapiens)', '100 to 500 nM');

====

- target system: EGFR V3 (Homo sapiens, UniProt P00533, DELINS30-297G)
- Construct: expressed in transfected cells; host or cells: BaF3 (murine pro-B) cells, retroviral transduction with pMXs-IRES-Blasticidin
- method description: BaF3 cell proliferation assay (CellTiterGlo), EGFR V3
- Format: cell-based
- particulars: Table A; BaF3 cells, 3 days
pIC50: −log10 of the molar value.
measured metric: pIC50

INSERT INTO assay_data (compound, target_system, result) VALUES
  ('C=CC(=O)Nc1cc2c(Nc3cccc(Cl)c3F)ncnc2cc1C#C[C@@]1(C)CCCN1C', 'EGFR V3 (Homo sapiens, UniProt P00533, DELINS30-297G)', '7.00 to 7.30'),
  ('C=CC(=O)Nc1cc2c(Nc3cccc(Cl)c3F)ncnc2cc1C#C[C@@]1(C)CCCN(C)C1', 'EGFR V3 (Homo sapiens, UniProt P00533, DELINS30-297G)', '7.00 to 7.30'),
  ('C=CC(=O)Nc1cc2c(Nc3cccc(Cl)c3F)ncnc2cc1C#CC12CC1CN(C1COC1)C2 (stereo not drawn)', 'EGFR V3 (Homo sapiens, UniProt P00533, DELINS30-297G)', '≥ 7.30'),
  ('C=CC(=O)Nc1cc2c(Nc3cccc(Cl)c3F)ncnc2cc1C#C[C@]1(C)CCN(C)C1', 'EGFR V3 (Homo sapiens, UniProt P00533, DELINS30-297G)', '≥ 7.30'),
  ('C=CC(=O)Nc1cc2c(Nc3ccc(OCc4cccc(F)c4)c(Cl)c3)ncnc2cc1C#C[C@@H]1[C@H]2CN(C)C[C@@H]12', 'EGFR V3 (Homo sapiens, UniProt P00533, DELINS30-297G)', '6.30 to 7.00'),
  ('C=CC(=O)Nc1cc2c(Nc3cccc(Cl)c3F)ncnc2cc1C#CC1CCN(C)C1 (stereo not drawn)', 'EGFR V3 (Homo sapiens, UniProt P00533, DELINS30-297G)', '≥ 7.30'),
  ('C=CC(=O)Nc1cc2c(Nc3ccc(Oc4ccccc4)cc3)ncnc2cc1C#C[C@@]12C[C@@H]1CN(C)C2', 'EGFR V3 (Homo sapiens, UniProt P00533, DELINS30-297G)', '≥ 7.30'),
  ('CC#CC(=O)Nc1cc2c(Nc3cccc(Cl)c3F)ncnc2cc1C#C[C@@]12C[C@@H]1CN(C)C2', 'EGFR V3 (Homo sapiens, UniProt P00533, DELINS30-297G)', '≥ 7.30'),
  ('CC#CC(=O)Nc1cc2c(Nc3ccc(OCc4ccccn4)c(Cl)c3)ncnc2cc1C#CC1(C)CCN(C)C1 (stereo not drawn)', 'EGFR V3 (Homo sapiens, UniProt P00533, DELINS30-297G)', '≥ 7.30'),
  ('CN1C[C@H]2C[C@@]2(C#Cc2cc3ncnc(Nc4cccc(Cl)c4F)c3cc2NC(=O)/C=C/CN2CCOCC2)C1', 'EGFR V3 (Homo sapiens, UniProt P00533, DELINS30-297G)', '≥ 7.30'),
  ('C=CC(=O)Nc1cc2c(Nc3cccc(Cl)c3F)ncnc2cc1C#CC12CC1CN(C)C2 (stereo not drawn)', 'EGFR V3 (Homo sapiens, UniProt P00533, DELINS30-297G)', '≥ 7.30'),
  ('C=CC(=O)Nc1cc2c(Nc3ccc(O)c(Cl)c3)ncnc2cc1C#C[C@@H]1[C@H]2CN(C)C[C@@H]12', 'EGFR V3 (Homo sapiens, UniProt P00533, DELINS30-297G)', '≥ 7.30'),
  ('CN1CC[C@](C)(C#Cc2cc3ncnc(Nc4cccc(Cl)c4F)c3cc2NC(=O)CC#N)C1', 'EGFR V3 (Homo sapiens, UniProt P00533, DELINS30-297G)', '< 6.30'),
  ('C=C(CO)C(=O)Nc1cc2c(Nc3cccc(Cl)c3F)ncnc2cc1C#C[C@@]1(C)CCN(C)C1', 'EGFR V3 (Homo sapiens, UniProt P00533, DELINS30-297G)', '7.00 to 7.30'),
  ('C=CC(=O)Nc1cc2c(Nc3cccc(Cl)c3F)ncnc2cc1C#CC1(F)CCN(C)C1 (stereo not drawn)', 'EGFR V3 (Homo sapiens, UniProt P00533, DELINS30-297G)', '≥ 7.30'),
  ('C=CC(=O)Nc1cc2c(Nc3ccc(OCc4ccccn4)c(Cl)c3)ncnc2cc1C#C[C@@]1(C)CCN(C)C1', 'EGFR V3 (Homo sapiens, UniProt P00533, DELINS30-297G)', '≥ 7.30'),
  ('C=C(C)C(=O)Nc1cc2c(Nc3cccc(Cl)c3F)ncnc2cc1C#C[C@@]1(C)CCN(C)C1', 'EGFR V3 (Homo sapiens, UniProt P00533, DELINS30-297G)', '< 6.30'),
  ('C=CC(=O)Nc1cc2c(Nc3ccc(F)c(Cl)c3F)ncnc2cc1C#CC1(C)CCN(C)C1 (stereo not drawn)', 'EGFR V3 (Homo sapiens, UniProt P00533, DELINS30-297G)', '≥ 7.30'),
  ('CN1C[C@H]2C[C@@]2(C#Cc2cc3ncnc(Nc4cccc(Cl)c4F)c3cc2NC(=O)C#CCN2CCOCC2)C1', 'EGFR V3 (Homo sapiens, UniProt P00533, DELINS30-297G)', '≥ 7.30'),
  ('C=CC(=O)Nc1cc2c(Nc3cccc(Cl)c3F)ncnc2cc1C#CC12CCC(CC1)N2C', 'EGFR V3 (Homo sapiens, UniProt P00533, DELINS30-297G)', '≥ 7.30'),
  ('C=CC(=O)Nc1cc2c(Nc3cccc(Cl)c3F)ncnc2cc1C#CC1(C)CCN(CCF)C1 (stereo not drawn)', 'EGFR V3 (Homo sapiens, UniProt P00533, DELINS30-297G)', '≥ 7.30'),
  ('CC#CC(=O)Nc1cc2c(Nc3cccc(Cl)c3F)ncnc2cc1C#C[C@@H]1[C@H]2CN(C)C[C@@H]12', 'EGFR V3 (Homo sapiens, UniProt P00533, DELINS30-297G)', '≥ 7.30'),
  ('C=CC(=O)Nc1cc2c(Nc3cccc(Cl)c3F)ncnc2cc1C#C[C@@]12C[C@@H]1CN(C1COC1)C2', 'EGFR V3 (Homo sapiens, UniProt P00533, DELINS30-297G)', '≥ 7.30'),
  ('C=CC(=O)Nc1cc2c(Nc3ccc(Cl)c(Cl)c3F)ncnc2cc1C#CC1C2COCC12 (stereo not drawn)', 'EGFR V3 (Homo sapiens, UniProt P00533, DELINS30-297G)', '≥ 7.30'),
  ('C=CC(=O)Nc1cc2c(Nc3cccc(Cl)c3F)ncnc2cc1C#C[C@@]12C[C@@H]1CN(C)C2', 'EGFR V3 (Homo sapiens, UniProt P00533, DELINS30-297G)', '≥ 7.30'),
  ('C=CC(=O)Nc1cc2c(Nc3cccc(Cl)c3F)ncnc2cc1C#CC1(C)COC1', 'EGFR V3 (Homo sapiens, UniProt P00533, DELINS30-297G)', '≥ 7.30'),
  ('C=CC(=O)Nc1cc2c(Nc3cccc(Cl)c3F)ncnc2cc1C#C[C@]12C[C@H]1CN(C)C2', 'EGFR V3 (Homo sapiens, UniProt P00533, DELINS30-297G)', '≥ 7.30'),
  ('C=CC(=O)Nc1cc2c(Nc3cccc(Cl)c3F)ncnc2cc1C#C[C@]1(C)CCN(C2COC2)C1', 'EGFR V3 (Homo sapiens, UniProt P00533, DELINS30-297G)', '≥ 7.30'),
  ('C=CC(=O)Nc1cc2c(Nc3cccc(Cl)c3F)ncnc2cc1C#CC12CCN(CC1)CC2', 'EGFR V3 (Homo sapiens, UniProt P00533, DELINS30-297G)', '≥ 7.30'),
  ('C=CC(=O)Nc1cc2c(Nc3cccc(Cl)c3F)ncnc2cc1C#C[C@@]1(C)CCN(C)C1', 'EGFR V3 (Homo sapiens, UniProt P00533, DELINS30-297G)', '≥ 7.30');
